system: Enterococcus faecalis; assay: Antibacterial activity against Enterococcus faecalis ATCC 29212; type: functional
Experimental Endpoint: MIC (µg/mL)
Field format: number, assumed µg/mL, no unit text.

Some entries whose results are on file:
CCNC(=O)Nc1nc2cc(-c3cccnc3)cc(-c3ccccn3)n2n1 : 32
CCNC(=O)Nc1nc2cc(-c3cccnc3)cc(-n3cccn3)n2n1 : 2
CCNC(=O)Nc1nc2cc(-c3cccnc3)cc(-c3cn[nH]c3)n2n1 : 8

Below: the item to evaluate.
Readout MIC for `CCNC(=O)Nc1nc2cc(-c3cccnc3)cc(C(N)=O)n2n1` , test system Enterococcus faecalis, was 16

###

tested on: Staphylococcus aureus; experiment: Antibacterial activity against Staphylococcus aureus ATCC 29213; assay type: functional
Reported MIC values for a set of molecules

Worked set:
CCNC(=O)Nc1nc2cc(-c3cccnc3)cc(-c3ccccn3)n2n1 : > 256 µg/mL
CCNC(=O)Nc1nc2cc(-c3cccnc3)cc(-c3cncnc3)n2n1 : > 256 µg/mL
CCNC(=O)Nc1nc2cc(-c3cccnc3)cc(-c3cnn(C)c3)n2n1 : 32 µg/mL

Noted MIC for `CCNC(=O)Nc1nc2cc(-c3cccnc3)cc(C(=O)NC)n2n1` , tested on Staphylococcus aureus: 8 µg/mL

Short answer on Staphylococcus aureus for `CCNC(=O)Nc1nc2cc(-c3cccnc3)cc(-c3cccc(C(C)=O)c3)n2n1` , MIC: > 256 µg/mL

Measured on Staphylococcus aureus, `CCNC(=O)Nc1nc2cc(-c3cccnc3)cc(-c3cn[nH]c3)n2n1` has a documented MIC of > 256 µg/mL

Item: `CCNC(=O)Nc1nc2cc(-c3cccnc3)cc(C(=O)N(C)C)n2n1` | System: Staphylococcus aureus | MIC: 256 µg/mL

Measured MIC (Staphylococcus aureus), entry `CCNC(=O)Nc1cn2ccc(-c3cccnc3)cc2n1` : 32 µg/mL
